# System: wheat germ agglutinin (Triticum aestivum), Alexa647-labelled
# protocol notes: wheat germ agglutinin binders on compound microarrays, profiling panel, artefact control for SMM control-protein annotation, biochemical, small-molecule microarray, 635/667 nm fluorescence (AID 1140);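 further: score merges 667 nm feature emission with signal to noise over triplicate slides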
# details: WGA-A647 binding, 635 nm fluorescence, higher = more signal
The following compounds are shown together with reported composite z-score values.
outcome measure: composite z-score

INSERT INTO assay_data (compound, val) VALUES
  ('O=C1C[C@H](c2ccccc2)[C@H](c2ccc(Br)cc2)O1', -0.236),
  ('CC(CCN1CCc2nc(-c3ccccc3)c(-c3ccccc3)cc2C1)=NO[C@H](C)c1cn([C@H](CO)Cc2ccccc2)nn1', 0.158),
  ('CC(C)=NO[C@H](C)c1cn([C@@H]2COC[C@H]2O)nn1', -0.038),
  ('CCOC(=O)[C@H](Cc1ccccc1)NC(=O)CCC1CC(OC(=O)NCc2ccc3c(c2)OCO3)CC2(CCCC(COC(=O)NCCc3ccc(Cl)cc3)O2)O1 (stereo partly specified)', 0.335),
  ('CO[C@H]1COC(=O)CCC[C@H](C)[C@H](OC)COC(=O)CC=C[C@@H]1C', -0.0108),
  ('CCOC(=O)CCN1C(=O)[C@H]2[C@@H]3C(=CC[C@H]2C1=O)C(=O)[C@H]1O[C@H]1[C@H]3O', 0.243),
  ('CC(CCC(=O)OC[C@H]1O[C@H](C#Cc2ccccc2)C=C[C@@H]1Oc1ccc(C)cc1)=NO[C@H](C)c1cn([C@@H]2COC[C@H]2O)nn1', 0.299),
  ('COCCNC(=O)OCC1CCCC2(CC(OC(=O)NCc3cccc4ccccc34)CC(CCC(=O)N[C@@H](C)C(=O)OC)O2)O1 (stereo partly specified)', 0.598),
  ('CCOC(=O)[C@H](CC(C)C)NC(=O)CCC1CC(OC(=O)NCc2ccc3c(c2)OCO3)CC2(CCCC(COC(=O)NCCc3ccc(Cl)cc3)O2)O1 (stereo partly specified)', 0.669),
  ('CC(=O)OC[C@H]1O[C@H](C#CCC2CCCCC2)C=C[C@@H]1OC(C)=O', 0.371),
  ('CC(=O)OC[C@H]1O[C@H](CCON=C(C)CCN2CCCc3nc(C)c(C)cc32)C=C[C@@H]1OC(C)=O', 0.0722),
  ('COc1ccc(COC(=O)NN=C2C[C@@H](O)[C@@H](O)[C@@H]3[C@@H]4C(=O)N(c5cccc(Oc6ccccc6)c5)C(=O)[C@@H]4CC[C@H]23)cc1', 0.916),
  ('COc1ccc(OC[C@@H](CO)OC)cc1', -0.254),
  ('COCOc1ccc(Br)cc1C(=O)C=Cc1ccc2c(c1)OCO2', 0.69),
  ('CCC1=NOC(CCC2CC(OC(=O)NCc3cccc4c3OCO4)CC3(CCCC(COC(=O)NCCc4ccc(Cl)cc4)O3)O2)C1 (stereo unspecified)', -0.191),
  ('CCN1C(=O)[C@H]2[C@H]3[C@H](O)[C@H](O)CC(=NO[C@H](C)c4cn([C@H](CO)Cc5ccccc5)nn4)[C@@H]3CC[C@H]2C1=O', 1.15);

###

# protocol notes: modulators of HCV replicon luciferase signal, primary screen, HCV replication inhibitor project, Huh7 cells, luciferase reporter (AID 1109);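 further: huh7 hepatoma cells harbouring a luciferase neomycin HCV replicon reporter; luciferase luminescence as measure of HCV replicon replication; test concentration not given here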
# details: 48 h, higher = more signal
outcome measure: z-score

INSERT INTO measurements (compound, outcome_measure, val) VALUES
  ('CCO[C@H](c1cc(OC)cc([N+](=O)[O-])c1OC)[C@H](C)[C@@H](OC)[C@H](C)C=CCC(=O)OC', 'z-score', 0.899),
  ('COc1ccc(O[C@H]2C=C[C@@H](c3ccccc3)O[C@@H]2CON=C(C)CCN2CCCc3nc(C)c(C)cc32)cc1', 'z-score', -2.04),
  ('C[C@@H]1CC[C@H]2C(=O)O[C@@H](COc3ccc(C(C)(C)C)cc3)CN2[C@H]1c1ccc(Br)cc1', 'z-score', -0.157),
  ('CC(CCC(=O)OC[C@H]1O[C@H](C#Cc2ccccc2)C=C[C@@H]1Oc1ccc(C)cc1)=NOC(C)CN1CCCc2nc(C)c(C)cc21 (stereo not given in full)', 'z-score', -0.456),
  ('CC(C)=NOC(C)CN1CCCCc2nc(C)c(C)cc21 (stereo not given)', 'z-score', -0.594);

# credit: PubChem BioAssay
